tested on: BT-549 breast; experiment: NCI-60 one-dose screen, 48 h; settings: 10 µM
About 83,000 compounds went through this panel and 20% of them were active in at least one assay; those are over-represented in the sample as a whole. Activity calls are given as the source filed them. Rule for the calls: active = growth percent below 10; inactive = the rest.
Outcomes: active, inactive

| Compound | Classification |
| --- | --- |
| COc1ccc(C(=O)N2C=Cc3ccccc3C2C#N)cc1 (configuration not stated) | inactive |
| CC(C)[N+]1(C)C2CC[C@@H]1CC(OC(=O)C(CO)c1ccccc1)C2 (some centres not stated) | inactive |
| COc1ccc(-c2cc(-c3cc(OC)ccc3OC)nc(N)c2C#N)cc1 | inactive |
| NC1=NC(c2ccccc2)C2=C(N1)/C(=C/c1ccccc1)CCC2 (configuration not stated) | inactive |
| NS(=O)(=O)Oc1ccc2c(ccn2C(=O)C23CC4CC(CC(C4)C2)C3)c1 | inactive |
| OC(CNc1ccnc2cc(Cl)ccc12)CNC1CCCCC1 (configuration not stated) | inactive |
| COc1ccc(-c2nn(-c3cccc(Cl)c3)cc2/C=C2\NC(=S)N(c3ccc(Cl)cc3)C2=O)cc1 | active |
| CCN(CC)CCOC(=O)c1cc(OCc2ccccc2)c(OCc2ccccc2)c(OCc2ccccc2)c1 | inactive |
| O=C(CCl)Nc1ccc(Cc2ccc(NC(=O)CCl)cc2)cc1 | active |
| O=C1Cc2cc(CCN3CCN(c4nsc5ccccc45)CC3)c(Cl)cc2N1 | inactive |
| Clc1ccc2c(c1)C(N1CCNCC1)=Nc1ccccc1O2 | inactive |
| COc1ccc(/C(C#N)=C/c2ccccc2OC)cc1 | inactive |
